System: Wolbachia pipientis
Assay: Anti-Wolbachia Cell-Based Screen
Assay type: functional
Set-up: scale not given: in the data most compounds retested in dose-response had high values
Conditions: 5 µM
Screen size: about 48,000 compounds; about 13,000 (27%) showed an effect of 50% or more. Some of the results follow.
Task for the reader: assign each of the following molecules its reported Percent Effect.
Report the value in % with no unit label.

get_value(item= CC(c1ccon1)N(C)S(=O)(=O)NCc1ccccc1 (centres undefined) , readout=Percent Effect) returns 110

get_value(item= COCCCN1CC2(CCCCN2C(C)=O)CC1=O (centres undefined) , readout=Percent Effect) returns 3.783

get_value(item= `CCN1CCN(C(=O)c2cnc(Cc3c(Cl)cccc3Cl)nc2O)CC1` , readout=Percent Effect) returns 1.362

get_value(item= O=C1CC(c2cccc(O)c2)c2sc(C(=O)O)c(-c3ccccc3)c2N1 (centres undefined) , readout=Percent Effect) returns 10.05

get_value(item= CCOC(=O)C1CC2(CCOCC2)N2CCC(=O)N12 (centres undefined) , readout=Percent Effect) returns 102.8

get_value(item= `O=c1nc(SCc2ccncc2)c2c(n1CCO)CCC2` , readout=Percent Effect) returns 3.515

get_value(item= CC(c1nccs1)N(C)C(=O)c1cc(CN(C)Cc2ccccc2)on1 (centres undefined) , readout=Percent Effect) returns -3.289

get_value(item= C=C(C)COc1cccc(CN(C)C(C)c2ccncn2)c1 (centres undefined) , readout=Percent Effect) returns 2.778

get_value(item= COCCCN1CC2(CCCCN2C(=O)C2CCCCC2)CC1=O (centres undefined) , readout=Percent Effect) returns -3.805

get_value(item= CCC1CCCCN1S(=O)(=O)c1c(N)noc1C (centres undefined) , readout=Percent Effect) returns 0.4068

get_value(item= `CCN1C(=O)CO[C@@H]2CN(C(=O)C3CCOCC3)C[C@H]21` , readout=Percent Effect) returns 7.95

get_value(item= `N#Cc1cccc(CN2C[C@@H](F)[C@@H](OCc3nc4cnccc4[nH]3)C2)c1` , readout=Percent Effect) returns -8.923

get_value(item= CC(c1ccncn1)N(C)S(=O)(=O)NCc1ccccc1 (centres undefined) , readout=Percent Effect) returns 110.9

get_value(item= `CC(=O)c1csc(-c2csc(Cn3ccc(=O)[nH]c3=O)n2)c1` , readout=Percent Effect) returns -9.484

get_value(item= OCC1COCCN(c2ncccc2C(F)(F)F)C1 (centres undefined) , readout=Percent Effect) returns 17.46

get_value(item= `Cc1cc(CNc2ccc(CC(=O)N(C)c3ccccc3)cc2)no1` , readout=Percent Effect) returns -7.262

get_value(item= CCOC(=O)C1CC2(CCCCC2)N2CCC(=O)N12 (centres undefined) , readout=Percent Effect) returns 121.9

get_value(item= CCN(CC)C(CNS(=O)(=O)NCc1ccccc1)c1ccco1 (centres undefined) , readout=Percent Effect) returns -8.171

get_value(item= `Cc1nc[nH]c1C(=O)N1CCC2(CC1)CN(CCN(C)C)C(=O)O2` , readout=Percent Effect) returns 0.5324

get_value(item= `CSCC(=O)N1CCC(c2nccn2Cc2cscn2)CC1` , readout=Percent Effect) returns -14.72

get_value(item= CC(c1nccs1)N(C)S(=O)(=O)NCc1ccccc1 (centres undefined) , readout=Percent Effect) returns 97.09

get_value(item= CCOCCN1CCN(Cc2nnc(C3CC3)o2)CC1CC (centres undefined) , readout=Percent Effect) returns 2.687

get_value(item= `Cc1cc(C(=O)N2CCC3(CC2)CN(CCN(C)C)C(=O)O3)nc(C)n1` , readout=Percent Effect) returns -4.106

get_value(item= CC(c1ccon1)N(C)C(=O)C1CCN(CC(N)=O)CC1 (centres undefined) , readout=Percent Effect) returns -6.665

This collection of values is drawn from ChEMBL document CHEMBL3988442.
